Assay: protein stability index of a GFP-peptide fusion (GPS, HEK-293T) (PSI 1-6); higher = more stable;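 further: 24-mer peptide tiles fused after GFP, lentivirally expressed, FACS-sorted into six equal bins by GFP/DsRed ratio, decoded by Illumina sequencing, PSI is the read-weighted mean bin number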
Conditions: treatment: DMSO; c terminus: a fixed tail appended
Measured protein stability index accompanies every entry in the list below.

Known results for sequences:
MQVDKKRVYLATDDPSLLKEAKTK [FUT8] ... 4.06
GEEQLKTHKKCKEEVVSTLDAVQV [FCHO1] ... 4.13
SEGKVLTLAALLLNRSESDIRYLL [FEM1B] ... 2.43
EELQSWVRGHHPKSGEEAVTVLED [ZNF232] ... 5.09
KLFSTYLRPPHTSRGTSQTPNASS [LPCAT4] ... 3.17

Give reported protein stability index value for AALRLHRLLRDSEAFCHANCSGPA [P3H4] 2.1
